Hello, the source for this data is paper PMC3466212, in case you need it.

# Mortality at 300 µM, SR listing for each entry below
tested on: C. pipiens SR strain larvae; experiment: Larval bioassay, SR strain (OP-resistant); conditions: fourth-instar larvae, 24 hours exposure, 300 µM

[
  {
    "Compound": "CCCCN1C(=O)C(=Cc2ccc(C)o2)C(=O)NC1=S [PTF-23]",
    "Unit Abbrev": "%",
    "Mortality at 300 µM, SR": 60
  },
  {
    "Compound": "Cc1ccc(C=C2C(=O)NC(=O)N(c3ccccc3)C2=O)o1 [PTF-3]",
    "Unit Abbrev": "%",
    "Mortality at 300 µM, SR": 78
  },
  {
    "Compound": "C=CCN1C(=O)NC(=O)C(=Cc2ccc(C)s2)C1=O [PTF-66]",
    "Unit Abbrev": "%",
    "Mortality at 300 µM, SR": 100
  },
  {
    "Compound": "CCOC(=O)c1ccc(-c2ccc(C=C3C(=O)NC(=O)N(c4ccccc4)C3=O)o2)cc1 [PTF-56]",
    "Unit Abbrev": "%",
    "Mortality at 300 µM, SR": 0
  },
  {
    "Compound": "O=C1NC(=O)N(c2ccccc2)C(=O)C1=Cc1ccc(Sc2ccccc2)o1 [PTF-60]",
    "Unit Abbrev": "%",
    "Mortality at 300 µM, SR": 50
  },
  {
    "Compound": "CN1C(=O)C(=Cc2ccc(-c3cccc(C(=O)O)c3)o2)C(=O)N(C)C1=O [PTF-44]",
    "Unit Abbrev": "%",
    "Mortality at 300 µM, SR": 0
  },
  {
    "Compound": "CCOP(=O)(OCC)Oc1ccc([N+](=O)[O-])cc1 [Paraoxon, reference compound]",
    "Unit Abbrev": "%",
    "Mortality at 300 µM, SR": 100
  },
  {
    "Compound": "CCOc1ccc(N2C(=O)NC(=O)C(=Cc3ccc(C)o3)C2=O)cc1 [PTF-13]",
    "Unit Abbrev": "%",
    "Mortality at 300 µM, SR": 96
  },
  {
    "Compound": "C=CCN1C(=O)NC(=O)C(=Cc2ccc(C)o2)C1=O [PTF-1]",
    "Unit Abbrev": "%",
    "Mortality at 300 µM, SR": 0
  }
]
